Entry source: paper PMC6540907

tested on: KB-3.1 cancer cells; experiment: Cell proliferation assay under folate free conditions (MTT); format: cell-based, human; details: KB-3.1, folate receptor-positive; read-out: Antiproliferative activity IC50 of folate-ratjadone conjugates
Reported pIC50 by item:
Note on units: pIC50 is unitless, being -log10 of a concentration expressed in mol/L.

# count of solved cases: 3
# molecule, studySystem, pIC50
data = [
    ("C/C=C/[C@@H]1O[C@H]([C@@H](/C=C/C=C(\\C)C[C@@H](C)/C=C(C)\\C=C\\[C@H]2CC=CC(=O)O2)NC(=O)OCc2ccc(NC(=O)[C@H](CCCNC(N)=O)NC(=O)[C@@H](NC(=O)OC[C@@H]3[C@@H]4CCc5nnn(CCC[C@H](NC(=O)CC[C@H](NC(=O)CC[C@H](NC(=O)c6ccc(NCc7cnc8nc(N)nc(O)c8n7)cc6)C(=O)O)C(=O)O)C(=O)O)c5CC[C@@H]43)C(C)C)cc2)C[C@@H](O)[C@@H]1C [FA-7-Val-Cit-pABA-16R-aminoratjadone]", "KB-3.1 cancer cells", 7.46),
    ("C/C=C/[C@@H]1O[C@H]([C@@H](/C=C/C=C(\\C)C[C@@H](C)/C=C(C)\\C=C\\[C@H]2CC=CC(=O)O2)NC(=O)OCCc2cn(CCC[C@H](NC(=O)CC[C@H](NC(=O)CC[C@H](NC(=O)c3ccc(NCc4cnc5nc(N)[nH]c(=O)c5n4)cc3)C(=O)O)C(=O)O)C(=O)O)nn2)C[C@@H](O)[C@@H]1C [FA-7-L-16R-aminoratjadone]", "KB-3.1 cancer cells", 6.72),
    ("C/C=C/[C@@H]1O[C@H]([C@@H](/C=C/C=C(\\C)C[C@@H](C)/C=C(C)\\C=C\\[C@H]2CC=CC(=O)O2)NC(=O)CCSSC[C@H](NC(=O)CC[C@H](NC(=O)c2ccc(NCc3cnc4nc(N)nc(O)c4n3)cc2)C(=O)O)C(=O)O)C[C@@H](O)[C@@H]1C [FA-SS-16R-aminoratjadone]", "KB-3.1 cancer cells", 6.53),
]

// recorded pIC50 for C/C=C/[C@@H]1O[C@H]([C@@H](/C=C/C=C(\C)C[C@@H](C)/C=C(C)\C=C\[C@H]2CC=CC(=O)O2)NC(=O)OCc2ccc(NC(=O)[C@H](CCCNC(N)=O)NC(=O)[C@@H](NC(=O)OC[C@@H]3[C@@H]4CCc5nnn(-c6ccc(C(=O)NCCCC[C@H](NC(=O)CC[C@H](NC(=O)c7ccc(NCc8cnc9nc(N)nc(O)c9n8)cc7)C(=O)O)C(=O)N[C@H](CCCCN)C(=O)O)cc6)c5CC[C@@H]43)C(C)C)cc2)C[C@@H](O)[C@@H]1C [FA-8-Val-Cit-pABA-16R-aminoratjadone] : 7.40

* * *

tested on: L-929; test: Cell proliferation assay (MTT, 5 days); type: cell-based, murine; conditions: Mus musculus, L929, L-929 murine fibroblast; read-out: Antiproliferative activity IC50
Reported IC50 by item:
Number only, in µM; omit the unit.

# molecule, measured
data = [
    ("C/C=C/[C@@H]1O[C@H]([C@@H](N)/C=C/C=C(\\C)C[C@@H](C)/C=C(C)\\C=C\\[C@H](O)CC(N)CC(=O)OC)C[C@@H](O)[C@@H]1C (stereo partly drawn) [Compound 19]", 1.32),
    ("C/C=C/[C@@H]1O[C@H]([C@H](N)/C=C/C=C(\\C)C[C@@H](C)/C=C(C)\\C=C\\[C@H](O)CC(N)CC(=O)OC)C[C@@H](O)[C@@H]1C (stereo partly drawn) [Compound 18]", 3.31),
]

Kindly review the next molecule as well.
// recorded IC50 for CC=CC1OC(C(O)C=CC=C(C)CC(C)C=C(C)C=CC2CC=CC(=O)O2)CC(O)C1C (single isomer, unassigned; (+)) [Compound 1, (+)-ratjadone A, reference compound] : 0.00068

* * *

tested on: A-549; assay: cells; type: cell-based, human; conditions: read-out: Antiproliferative activity IC50; A-549 human lung carcinoma
readoutLabel: IC50

// recorded IC50 for CC=CC1OC(C(C=CC=C(C)CC(C)C=C(C)C=CC2CC=CC(=O)O2)NC(=O)OCc2ccc(NC(=O)C(CCCNC(N)=O)NC(=O)C(NC(=O)OCC3C4CCC#CCCC43)C(C)C)cc2)CC(O)C1C (stereo not shown) [Compound 25] : 39.5 nM

* * *

system: A-549; assay: cells; assay type: cell-based, human; settings: A-549 human lung carcinoma; read-out: Antiproliferative activity IC50
readoutLabel: pIC50
Note on units: pIC50 is unitless, being -log10 of a concentration expressed in mol/L.

# compound, pIC50
rows = [
    ("C/C=C/[C@@H]1O[C@H]([C@@H](/C=C/C=C(\\C)C[C@@H](C)/C=C(C)\\C=C\\[C@H]2CC=CC(=O)O2)NC(=O)OCc2ccc(NC(=O)[C@H](CCCNC(N)=O)NC(=O)[C@@H](NC(=O)OCC3C4CCc5nnn(CCC[C@@H](NC(=O)[C@H](Cc6ccc(O)cc6)NC(=O)[C@H](CO)NC(=O)[C@H](Cc6c[nH]c7ccccc67)NC(=O)[C@H](Cc6c[nH]cn6)NC(=O)[C@@H]6CCC(=O)N6)C(=O)N[C@@H](CC(C)C)C(=O)N[C@@H](CCCNC(=N)N)C(=O)N6CCC[C@H]6C(=O)NCC(N)=O)c5CCC43)C(C)C)cc2)C[C@@H](O)[C@@H]1C (stereo partly drawn)", 7.64),
    ("C/C=C/[C@@H]1O[C@H]([C@@H](/C=C/C=C(\\C)C[C@@H](C)/C=C(C)\\C=C\\[C@H]2CC=CC(=O)O2)NC(=O)OCCc2cn(CCC[C@H](NC(=O)[C@H](Cc3ccc(O)cc3)NC(=O)[C@H](CO)NC(=O)[C@H](Cc3c[nH]c4ccccc34)NC(=O)[C@H](Cc3c[nH]cn3)NC(=O)[C@@H]3CCC(=O)N3)C(=O)N[C@@H](CC(C)C)C(=O)N[C@@H](CCCNC(=N)N)C(=O)N3CCC[C@H]3C(=O)NCC(N)=O)nn2)C[C@@H](O)[C@@H]1C [L-Orn-LHRH-16R-aminoratjadone]", 5.80),
]

Kindly review the next compound as well.
// recorded pIC50 for C#CCCOC(=O)N[C@@H](C(=O)NC(CCCNC(N)=O)C(=O)Nc1ccc(COC(=O)N[C@H](/C=C/C=C(\C)C[C@@H](C)/C=C(C)\C=C\[C@H]2CC=CC(=O)O2)[C@@H]2C[C@@H](O)[C@H](C)[C@H](/C=C/C)O2)cc1)C(C)C (stereo partly drawn) : 7.60

* * *

Reported IC50 by item:
test system: A-549; assay: cells; assay type: cell-based, human; conditions: Homo sapiens, A549, read-out: Antiproliferative activity IC50, A-549 human lung carcinoma
Please state the number and follow it with the unit.

# count of solved cases: 4
# compound, IC50
records = [
    ("CC=CC1OC(C(C=CC=C(C)CC(C)C=C(C)C=CC2CC=CC(=O)O2)NC(=O)OCc2ccc(NC(=O)C(CCCNC(N)=O)NC(=O)C(NC(=O)OCC3C4CCC#CCCC43)C(C)C)cc2)CC(O)C1C (centres unmarked) [Compound 25]", "39.5 nM"),
    ("C/C=C/[C@@H]1O[C@H]([C@H](O)/C=C/C=C(\\C)C[C@@H](C)/C=C(C)\\C=C\\[C@H]2CC=CC(=O)O2)CC(N)[C@@H]1C (some centres unmarked) [Compound 33, 19-aminoratjadone]", "4.39 nM"),
    ("C#CCCC(=O)N[C@H](/C=C/C=C(\\C)C[C@@H](C)/C=C(C)\\C=C\\[C@H]1CC=CC(=O)O1)[C@@H]1C[C@@H](O)[C@H](C)[C@H](/C=C/C)O1 [Compound 20]", "0.58 nM"),
    ("C/C=C/[C@@H]1O[C@H](C(=O)/C=C/C=C(\\C)C[C@@H](C)/C=C(C)\\C=C\\[C@H]2CC=CC(=O)O2)C[C@@H](O)[C@@H]1C [Compound 13, 16-oxoratjadone]", "1.76 nM"),
]

Kindly review the next compound as well.
// recorded IC50 for C#CCCOC(=O)N[C@H](/C=C/C=C(\C)C[C@@H](C)/C=C(C)\C=C\[C@H]1CC=CC(=O)O1)[C@@H]1C[C@@H](O)[C@H](C)[C@H](/C=C/C)O1 [Compound 21] : 1.25 nM

* * *

system: KB-3.1; experiment: cells; assay type: cell-based, human; conditions: Homo sapiens, KB 3-1, read-out: Antiproliferative activity IC50, KB-3.1 human cervix carcinoma
readoutLabel: IC50

# count of solved cases: 3
# compound, IC50
measured = [
    ("C#CCCOC(=O)N[C@@H](/C=C/C=C(\\C)C[C@@H](C)/C=C(C)\\C=C\\[C@H]1CC=CC(=O)O1)[C@@H]1C[C@@H](O)[C@H](C)[C@H](/C=C/C)O1", "1.23 nM"),
    ("C/C=C/[C@@H]1O[C@H]([C@@H](N)/C=C/C=C(\\C)C[C@@H](C)/C=C(C)\\C=C\\[C@H]2CC=CC(=O)O2)C[C@@H](O)[C@@H]1C [Compound 17, 16S-aminoratjadone]", "1.59 nM"),
    ("C/C=C/[C@@H]1O[C@H]([C@H](O)/C=C/C=C(\\C)C[C@@H](C)/C=C(C)\\C=C\\[C@H]2CC=CC(=O)O2)CC(N)[C@@H]1C (stereo partly shown)", "6.67 nM"),
]

Kindly review the next compound as well.
// recorded IC50 for C/C=C/[C@@H]1O[C@H]([C@H](O)/C=C/C=C(\C)C[C@@H](C)/C=C(C)\C=C\[C@H]2CC=CC(=O)O2)CC(=O)[C@@H]1C : 0.36 nM
